Assay Explanation: Selectivity index, ratio of TC50 for human CEM cells to EC50 for SIV in human CEM cells
For each record, write down the corresponding Ratio.

Known results for compounds:
mol_smiles=COC(=O)[C@H](Cc1c[nH]c2ccccc12)NC(=O)c1cnc2ccccc2c1Cl reported_value=>19
mol_smiles=COC(=O)[C@H](CO)NC(=O)c1cnc2cc(Cl)ccc2c1Cl reported_value=>12
mol_smiles=O=C(NCCO)c1c[nH]c2ccccc2c1=O reported_value=>27
mol_smiles=O=C(NCCO)c1c[nH]c2ccc(Cl)cc2c1=O reported_value=>19
mol_smiles=O=C(N[C@H](CO)Cc1ccccc1)c1cnc2ccccc2c1Cl reported_value=>25

For each of the compounds below, note its Ratio.
1. COC(=O)CNC(=O)c1cnc2ccccc2c1Cl
2. O=C(NCCO)c1cn(Cc2ccccc2)c2ccccc2c1=O
3. COC(=O)[C@@H](NC(=O)c1cnc2cc(C)ccc2c1Cl)[C@@H](C)O
4. COC(=O)[C@H](Cc1ccccc1)NC(=O)c1cnc2ccccc2c1Cl
5. COC(=O)[C@H](CO)NC(=O)c1cnc2ccc(F)cc2c1Cl
6. COC(=O)[C@H](CSC)NC(=O)c1cnc2ccccc2c1Cl
7. COC(=O)[C@H](CO)NC(=O)c1cnc2c(Cl)cccc2c1Cl
8. COC(=O)[C@H](CO)NC(=O)c1cnc2cc(C)ccc2c1Cl

1. >18
2. >16
3. >14
4. >13
5. >17
6. 22
7. >15
8. 13

For each of the compounds below, note its Ratio.
1. COC(=O)[C@H](CO)NC(=O)c1cnc2ccc(Cl)cc2c1Cl
2. COC(=O)[C@H](CO)NC(=O)c1cnc2ccccc2c1Cl
3. Cn1cc(C(=O)NCCO)c(=O)c2ccccc21
4. COC(=O)[C@@H](NC(=O)c1cnc2ccccc2c1Cl)[C@@H](C)O
5. O=C(NCCO)c1cn(CCO)c2ccccc2c1=O
6. CC[C@H](C)[C@H](NC(=O)c1cnc2ccccc2c1Cl)C(=O)OC
7. O=C(NCCCO)c1cnc2ccccc2c1Cl
8. COC(=O)[C@H](CC(C)C)NC(=O)c1cnc2ccccc2c1Cl

1: >8.3; 2: >90; 3: >11; 4: >14; 5: >13; 6: 17; 7: >15; 8: 5.2

For each of the compounds below, note its Ratio.
1. COC(=O)[C@H](CO)NC(=O)c1cnc2c(F)cc(F)cc2c1Cl
2. C[C@@H](CO)NC(=O)c1cnc2ccccc2c1Cl
3. CC(C)C[C@@H](CO)NC(=O)c1cnc2ccccc2c1Cl

>11
>14
>12

====

For each record, write down the corresponding Ratio.
Assay Explanation: Selectivity index, ratio of TC50 for human CEM cells to EC50 for SIV in human CEM cells

mol_smiles=O=C(NCCO)c1c[nH]c2ccc(Oc3ccccc3)cc2c1=O reported_value=>20
mol_smiles=COC(=O)[C@H](CO)NC(=O)c1cnc2ccc(C)cc2c1Cl reported_value=>8.6
mol_smiles=O=C(NCCO)c1cn(Cc2ccc(F)cc2)c2ccccc2c1=O reported_value=>14
mol_smiles=COC(=O)[C@H](CO)NC(=O)c1cnc2c(C)cccc2c1Cl reported_value=>36
mol_smiles=COC(=O)[C@@H](NC(=O)c1cnc2ccccc2c1Cl)C(C)C reported_value=3.1
mol_smiles=CCOC(=O)[C@H](CO)NC(=O)c1cnc2ccccc2c1Cl reported_value=>21
mol_smiles=COC(=O)[C@H](C)NC(=O)c1cnc2ccccc2c1Cl reported_value=14

Below: the item to evaluate.
Ratio in this record for O=C(NCCO)c1cnc2ccccc2c1Cl : >37

Provenance of the data: ChEMBL document CHEMBL1152759
